# tested on: T1, truncated wild type EGFR 1-525 (EGFR1 (1-525)-SRGPF-Myc-NMHTG-6His) (human, UniProt P00533 25-525)
# T1 construct: the signal peptide is left out; not shown: Myc tag
# experiment summary: SPR (Biacore), antibody captured via anti-human Fc, antigen injected

| binder | KD ratio (Ab1/variant Ab) |
| --- | --- |
| Antibody F (AbF) (antibody, V domains shown, Full length IgG1) VH: EVQLQESGPGLVKPSQTLSLTCTVSGYSISRDFAWNWIRQPPGKGLEWMGYISYSGNTRYQPSLKSRITISRDTSKNQFFLKLNSVTAADTATYYCVTASRGFPYWGQGTLVTVSS VL: DIQMTQSPSSMSVSVGDRVTITCHSSQDINSNIGWLQQKPGKSFKGLIYHGTNLDDGVPSRFSGSGSGTDYTLTISSLQPEDFATYYCVQYAQFPWTFGGGTKLEIK | 5.4 |
| Antibody M (AbM) (antibody, V domains shown, Full length IgG1) VH: EVQLQESGPGLVKPSQTLSLTCTVSGYSIGRDFAWNWIRQPPGKGLEWMGYISYNGNTRYQPSLKSRITISRDTSKNQFFLKLNSVTAADTATYYCVTASRGFPYWGQGTLVTVSS VL: DIQMTQSPSSMSVSVGDRVTITCHSSQDITYNVGWLQQKPGKSFKGLIYHGSNLDHGVPSRFSGSGSGTDYTLTISSLQPEDFATYYCVQYDDFPWTFGGGTKLEIK | 387 |

All values here come from patent US20150337042A1.
